molecular target: USP28 (UniProt Q96RU2); assay: log2 ratio of Biotin-Ahx-Ub-VS probe labelling (fragment/DMSO); higher = less target engagement (more negative = stronger competition), active = hit call of the paper (q ≤ 0.05, log2 ratio ≤ -1); conditions: compound concentration: 200 uM; treatment time: 3 h
Sequence (Q96RU2 whole entry, the tested form may be a part): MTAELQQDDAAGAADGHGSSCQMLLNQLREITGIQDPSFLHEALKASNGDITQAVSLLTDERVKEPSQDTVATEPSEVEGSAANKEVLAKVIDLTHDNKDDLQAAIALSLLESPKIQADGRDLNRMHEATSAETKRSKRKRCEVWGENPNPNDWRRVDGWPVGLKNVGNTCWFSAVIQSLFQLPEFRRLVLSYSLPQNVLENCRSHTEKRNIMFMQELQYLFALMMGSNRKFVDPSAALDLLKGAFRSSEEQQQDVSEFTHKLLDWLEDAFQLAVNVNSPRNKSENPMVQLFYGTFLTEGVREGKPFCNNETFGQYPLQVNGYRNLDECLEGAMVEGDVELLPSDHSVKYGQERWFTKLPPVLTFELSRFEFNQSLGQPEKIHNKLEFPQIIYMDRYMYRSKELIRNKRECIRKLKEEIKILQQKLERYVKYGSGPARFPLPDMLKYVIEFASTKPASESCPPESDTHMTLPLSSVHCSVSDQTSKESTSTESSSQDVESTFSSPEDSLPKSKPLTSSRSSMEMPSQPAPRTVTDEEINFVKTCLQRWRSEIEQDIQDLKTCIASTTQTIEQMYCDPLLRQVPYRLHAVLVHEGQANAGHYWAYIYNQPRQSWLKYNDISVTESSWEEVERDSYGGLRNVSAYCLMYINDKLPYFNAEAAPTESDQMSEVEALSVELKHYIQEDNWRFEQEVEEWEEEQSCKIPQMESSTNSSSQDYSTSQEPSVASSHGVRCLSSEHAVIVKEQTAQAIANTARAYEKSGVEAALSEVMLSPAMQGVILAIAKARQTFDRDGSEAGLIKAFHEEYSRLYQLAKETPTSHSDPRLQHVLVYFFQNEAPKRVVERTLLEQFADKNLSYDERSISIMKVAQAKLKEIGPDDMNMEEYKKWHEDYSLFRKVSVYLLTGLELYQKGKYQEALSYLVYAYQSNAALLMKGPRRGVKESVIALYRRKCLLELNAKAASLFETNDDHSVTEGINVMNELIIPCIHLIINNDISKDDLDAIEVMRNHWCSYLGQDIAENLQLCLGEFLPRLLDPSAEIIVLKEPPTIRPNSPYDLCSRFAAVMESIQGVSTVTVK
Grouping by measured log2 ratio of Biotin-Ahx-Ub-VS probe labelling is done with the following cut points: Low: < -0.7; Mid: ≥ -0.7 and < -0.4; High: ≥ -0.4

Input "Cc1cccc(NC(=O)[C@@H]2CCCN2C(=O)CCl)n1" ; output its category
Mid

Please indicate the class for "O=C(CCl)NC1CCC2(CC1)OCCO2" based on its log2 ratio of Biotin-Ahx-Ub-VS probe labelling.
Mid

Class label required: Cc1ccc(CC(NC(=O)CCl)c2ccccn2)cc1.Cl (configuration not stated)
High

Entry "COc1cc(Cl)c(C)cc1NC(=O)CCl" belongs to which category?
Low

Field: class (log2 ratio of Biotin-Ahx-Ub-VS probe labelling) — entry: "Cl.O=C(CCl)NCCN1CCc2ccccc21"
Low

Kindly identify the class of "O=C(CCl)Nc1nc(-c2cccs2)cs1" .
Mid

// bin(item) where item = "CC(C)n1nccc1NC(=O)CCl"
Mid

For the record "CN1C(=O)c2ccc(NC(=O)CCl)cc2C1=O" , report the class its log2 ratio of Biotin-Ahx-Ub-VS probe labelling corresponds to.
Low

The entry to classify is "O=C(CCl)Nc1cccc2ncccc12" ; which class holds it?
Low

Which class holds Cc1cc(CC(C)NC(=O)CCl)n[nH]1 (configuration not stated) ?
High

Consider "O=C(CCl)N1CC2(CCOCC2)C1" . To which log2 ratio of Biotin-Ahx-Ub-VS probe labelling class does it belong?
High

Kindly state the category for this compound: CC(NC(=O)CCl)c1cc2n(n1)CCCC2.Cl (configuration not stated)
Mid

State the class of the compound shown: Cc1cccc(N2CCC(NC(=O)CCl)C2=O)c1 (configuration not stated)
Mid

Which class holds "Cl.O=C(CCl)N1CCN(Cc2ccccc2)CC1" ?
Mid

Field: class (log2 ratio of Biotin-Ahx-Ub-VS probe labelling) — entry: "O=C(CCl)Nc1cc(Cl)ccc1C(=O)O"
High

Lab note: sort "CCc1c[nH]c(CNC(=O)CCl)n1.Cl" into the matching log2 ratio of Biotin-Ahx-Ub-VS probe labelling band.
Mid

# classify by log2 ratio of Biotin-Ahx-Ub-VS probe labelling band: "O=C(CCl)NCCC1=CCCCC1"
Mid

Band of "Cc1ncsc1CCNC(=O)CCl" ?
High

Which bin, given its log2 ratio of Biotin-Ahx-Ub-VS probe labelling, does "COc1cccc(CN(C)C(=O)CCl)c1" occupy?
Low

Pick a category. Item: "CS(=O)(=O)c1ccc(CNC(=O)CCl)cc1"
Mid

Classify this compound: O=C(CCl)N(C1CCCC1)C1CCS(=O)(=O)C1 (configuration not stated)
High

In plain terms, what class is "N#Cc1ccccc1N1CCN(C(=O)CCl)CC1" ?
Low

Bin this entry: COc1ccccc1C(C)NC(=O)CCl (configuration not stated)
Mid

GET /class?item= "Cl.O=C(CCl)NCc1ccnc(Oc2ccccc2F)c1"
Mid

Entry "O=C(CCl)Nc1nnc(CC(F)(F)F)o1" belongs to which category?
Mid

Lab note: sort CCN(C(=O)CCl)C1CCS(=O)(=O)C1 (configuration not stated) into the matching log2 ratio of Biotin-Ahx-Ub-VS probe labelling band.
High

Please let me know in which category the item "O=C(CCl)N1CCOC2(CCC2)C1" belongs.
High

Which bin should I file "Cc1ccc(C)c(NC(=O)CCl)c1" under?
Low

Which bin should I file CC(NC(=O)CCl)c1noc(Cc2ccccc2)n1 (configuration not stated) under?
Low

// return the class label for "COc1ccc(CN(C)C(=O)CCl)cc1"
Mid

Band for "O=C(CCl)NCc1cccc(N2CCCC2=O)c1" ?
High

Band for "Cl.O=C(CCl)N1CCC(n2nc3ccccc3n2)CC1" ?
Mid

Categorize the following entry: "O=C(CCl)N1CCN(C(=O)Nc2ccccc2)CC1"
High

// bin(item) where item = CC(NC(=O)CCl)c1ccc2[nH]ncc2c1 (configuration not stated)
Low

Determine which band this compound sits in: CCC(NC(=O)CCl)c1ccc(Cl)cc1 (configuration not stated)
Mid

Which class holds "CN(C)S(=O)(=O)c1ccccc1CNC(=O)CCl" ?
High

Just checking, what class would you give "CNC(=O)C1(NC(=O)CCl)CCCCC1" here?
High

Class label required: "CNC(=O)Cn1cc(NC(=O)CCl)cn1"
Mid

Exercise: read the entry "CN(C)C(=O)c1ccc(NC(=O)CCl)cc1" and state which class it falls under.
Low

Place this compound in its band: "O=C(CCl)Nc1ccc(Cl)c(F)c1"
Low

Field: class (log2 ratio of Biotin-Ahx-Ub-VS probe labelling) — entry: "O=C(CCl)Nc1cc(Cl)ccc1-n1cncn1"
Low

// return the class label for "Cl.O=C(CCl)N1CCc2ncncc2C1"
Mid

Assign a bin to Cc1ccc(N2CCC(NC(=O)CCl)C2=O)cc1 (configuration not stated)
High

Each compound maps to one class by log2 ratio of Biotin-Ahx-Ub-VS probe labelling. Which class for "Cc1nc(CN2CCCN(C(=O)CCl)CC2)no1.Cl" ?
High

Class label required: O=C(CCl)N1CCOCC1C1CC1 (configuration not stated)
High

Into which category would you place "Cc1ccc2nnc(CNC(=O)CCl)n2c1" ?
High

Lab note: sort "Cc1cccnc1NC(=O)C1CCN(C(=O)CCl)CC1.Cl" into the matching log2 ratio of Biotin-Ahx-Ub-VS probe labelling band.
Mid

Hi there! Could you help me figure out the category for O=C(CCl)N1CCOC(CCc2ccccc2)C1 (configuration not stated) please?
Low

Given "N#Cc1cnn(-c2ccccc2)c1NC(=O)CCl" , name the class its log2 ratio of Biotin-Ahx-Ub-VS probe labelling places it in.
Low

Dear colleague, I would appreciate it if you could identify the bin for "Cc1cccc2nc(CCNC(=O)CCl)cn12.Cl" and reply at your convenience.
Mid

Class (by measured log2 ratio of Biotin-Ahx-Ub-VS probe labelling) for "Cc1ccc(-c2nnc(C)[nH]2)c(NC(=O)CCl)c1"
Mid

Bin? "CCCn1nccc1NC(=O)CCl"
Mid

Field: class (log2 ratio of Biotin-Ahx-Ub-VS probe labelling) — entry: "O=C(CCl)N[C@H]1CC[C@@H](CO)CC1"
Low

Please let me know in which category the item "O=C(CCl)Nc1cccc(C(=O)N2CCSCC2)c1" belongs.
Low
